This section presents binders with their documented IC50 values.
- subject_of_test: T1, IGF-1 (human, UniProt P05019 49-118)
- T1 construct: mature; also called insulin-like growth factor-1; rhIGF-1
- protocol: displacement of 125I-IGF-1 (2 nM) from receptors on MCF-7 cells
Bridge positions count the residues as written; N and C are the ends. Ends that are not written are not given here.
Return type: number; implicit unit µM.

Below, each entry is followed by its recorded IC50 result.
- FECLTSVEALRGCMYG (synthetic peptide) [F1-3]: 45.7
- MDCLASVEALKWCMYG (synthetic peptide) [F1-2]: 15.3

Attention now turns to another entry.
For RNCFESVAALRRCMYG (disulfide 3-13, synthetic peptide; also called IGF-F1-1) [F1-1] the binder record lists IC50 as 5.12
